In this section, each of the variants is paired with its reported yeast fitness.
B1: tRNA (parent)
chain: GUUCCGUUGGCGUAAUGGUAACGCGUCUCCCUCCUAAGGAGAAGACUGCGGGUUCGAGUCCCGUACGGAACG

Variants of: B1
experimental-details: yeast fitness relative to wild type (ratio to wild type); higher = fitter; tRNA-Arg(CCU), competitive growth, 37 C, YPD
This sample holds only a part of the variants without activity.

[
  {
    "residue-change": "C4G U16C G44A G48A G50C C66G",
    "value-comparator": "≤",
    "yeast fitness": 0.5
  },
  {
    "residue-change": "A20G U47C G58U A65U",
    "value-comparator": "≤",
    "yeast fitness": 0.5
  },
  {
    "residue-change": "C11G A15C G17A G18C",
    "value-comparator": "≤",
    "yeast fitness": 0.5
  },
  {
    "residue-change": "U8G A20G G58U A65G G67A",
    "value-comparator": "≤",
    "yeast fitness": 0.5
  },
  {
    "residue-change": "C4G A14U G23A G56C",
    "value-comparator": "≤",
    "yeast fitness": 0.5
  },
  {
    "residue-change": "A15C G25C C29U U35C A43U A57C G58A",
    "value-comparator": "≤",
    "yeast fitness": 0.5
  },
  {
    "residue-change": "C4G G6A G23A A43G G48C",
    "value-comparator": "≤",
    "yeast fitness": 0.5
  },
  {
    "residue-change": "C11G C29U U35C C66A",
    "value-comparator": "≤",
    "yeast fitness": 0.5
  },
  {
    "residue-change": "C4A C27U A40U G52C C60G",
    "value-comparator": "≤",
    "yeast fitness": 0.5
  },
  {
    "residue-change": "A21U C27G C30G",
    "value-comparator": "≤",
    "yeast fitness": 0.5
  },
  {
    "residue-change": "A15U C60A G63A",
    "value-comparator": "≤",
    "yeast fitness": 0.5
  },
  {
    "residue-change": "U35C A43U",
    "value-comparator": "=",
    "yeast fitness": 0.971
  },
  {
    "residue-change": "U19A U35A A37G A43U A45C",
    "value-comparator": "≤",
    "yeast fitness": 0.5
  },
  {
    "residue-change": "C5U A14G G67A",
    "value-comparator": "=",
    "yeast fitness": 0.642
  },
  {
    "residue-change": "G9A U47G",
    "value-comparator": "=",
    "yeast fitness": 0.626
  },
  {
    "residue-change": "C31G G51A",
    "value-comparator": "=",
    "yeast fitness": 0.749
  },
  {
    "residue-change": "C4U C11A U28A C31U G51C G56A",
    "value-comparator": "≤",
    "yeast fitness": 0.5
  },
  {
    "residue-change": "G38A G41C",
    "value-comparator": "=",
    "yeast fitness": 0.659
  },
  {
    "residue-change": "A20U C27U",
    "value-comparator": "=",
    "yeast fitness": 1.05
  },
  {
    "residue-change": "U26A C27A U28A C34U",
    "value-comparator": "≤",
    "yeast fitness": 0.5
  },
  {
    "residue-change": "U16C U26A",
    "value-comparator": "=",
    "yeast fitness": 0.973
  },
  {
    "residue-change": "U19A C60G A69U",
    "value-comparator": "≤",
    "yeast fitness": 0.5
  },
  {
    "residue-change": "C24U U35A A42G A69U",
    "value-comparator": "≤",
    "yeast fitness": 0.5
  },
  {
    "residue-change": "G44A C49G",
    "value-comparator": "=",
    "yeast fitness": 0.714
  },
  {
    "residue-change": "C4A G12C U19C C24G A43U G67A",
    "value-comparator": "≤",
    "yeast fitness": 0.5
  },
  {
    "residue-change": "A36G C66U A69U",
    "value-comparator": "=",
    "yeast fitness": 0.76
  },
  {
    "residue-change": "A20G A45C A69U",
    "value-comparator": "=",
    "yeast fitness": 0.729
  },
  {
    "residue-change": "C11A A21U G58C A70C",
    "value-comparator": "≤",
    "yeast fitness": 0.5
  },
  {
    "residue-change": "A15G U26G C30U A40U G52A",
    "value-comparator": "≤",
    "yeast fitness": 0.5
  },
  {
    "residue-change": "U3C U28A U35C A37C G56C A57G G68U",
    "value-comparator": "≤",
    "yeast fitness": 0.5
  },
  {
    "residue-change": "C29A A65G",
    "value-comparator": "=",
    "yeast fitness": 0.667
  },
  {
    "residue-change": "A21U G63A",
    "value-comparator": "=",
    "yeast fitness": 0.856
  },
  {
    "residue-change": "U19C U32C",
    "value-comparator": "=",
    "yeast fitness": 0.926
  },
  {
    "residue-change": "G44A",
    "value-comparator": "=",
    "yeast fitness": 0.982
  },
  {
    "residue-change": "C11A C30U C33G A40G",
    "value-comparator": "≤",
    "yeast fitness": 0.5
  },
  {
    "residue-change": "A14U C34G C61G",
    "value-comparator": "≤",
    "yeast fitness": 0.5
  },
  {
    "residue-change": "A15C U16A A45U G48C C61U",
    "value-comparator": "≤",
    "yeast fitness": 0.5
  },
  {
    "residue-change": "C5G U8C G18C C61U A65C",
    "value-comparator": "≤",
    "yeast fitness": 0.5
  },
  {
    "residue-change": "A36U G58C A65U",
    "value-comparator": "≤",
    "yeast fitness": 0.5
  },
  {
    "residue-change": "U16G A20U G38A G67A A69U",
    "value-comparator": "≤",
    "yeast fitness": 0.5
  },
  {
    "residue-change": "A21G C61U A70U",
    "value-comparator": "=",
    "yeast fitness": 0.776
  },
  {
    "residue-change": "G6C G10C C11U C55U C61G C62G",
    "value-comparator": "≤",
    "yeast fitness": 0.5
  },
  {
    "residue-change": "C29U G41C",
    "value-comparator": "=",
    "yeast fitness": 0.776
  },
  {
    "residue-change": "U2C U13A C61U",
    "value-comparator": "≤",
    "yeast fitness": 0.5
  },
  {
    "residue-change": "C31A A37G",
    "value-comparator": "=",
    "yeast fitness": 0.672
  },
  {
    "residue-change": "U16A A21G C27G G68C",
    "value-comparator": "≤",
    "yeast fitness": 0.5
  },
  {
    "residue-change": "A15C C30G U32C C34U C66U A70C",
    "value-comparator": "≤",
    "yeast fitness": 0.5
  },
  {
    "residue-change": "C34U G39C C66U",
    "value-comparator": "≤",
    "yeast fitness": 0.5
  },
  {
    "residue-change": "A42U A69C",
    "value-comparator": "=",
    "yeast fitness": 0.959
  },
  {
    "residue-change": "A37C C46G",
    "value-comparator": "=",
    "yeast fitness": 0.947
  },
  {
    "residue-change": "C5U U35G A65U",
    "value-comparator": "=",
    "yeast fitness": 0.576
  },
  {
    "residue-change": "C30U U59A A69C",
    "value-comparator": "≤",
    "yeast fitness": 0.5
  },
  {
    "residue-change": "U3C C11U A36C A65C C66U",
    "value-comparator": "≤",
    "yeast fitness": 0.5
  },
  {
    "residue-change": "G44C G63C G68A",
    "value-comparator": "≤",
    "yeast fitness": 0.5
  },
  {
    "residue-change": "A37C C46G C62U A69U",
    "value-comparator": "=",
    "yeast fitness": 0.673
  },
  {
    "residue-change": "C4G G17C U59C",
    "value-comparator": "=",
    "yeast fitness": 0.746
  },
  {
    "residue-change": "U28C C31U C60U",
    "value-comparator": "≤",
    "yeast fitness": 0.5
  },
  {
    "residue-change": "C27U C46A G50A",
    "value-comparator": "=",
    "yeast fitness": 0.73
  },
  {
    "residue-change": "C24U C31G A37G",
    "value-comparator": "=",
    "yeast fitness": 0.529
  },
  {
    "residue-change": "C11U U26A A43U A65C A70G",
    "value-comparator": "≤",
    "yeast fitness": 0.5
  },
  {
    "residue-change": "C5A U7C A36G",
    "value-comparator": "≤",
    "yeast fitness": 0.5
  },
  {
    "residue-change": "C4G U53C",
    "value-comparator": "=",
    "yeast fitness": 0.776
  },
  {
    "residue-change": "U32A C55U",
    "value-comparator": "=",
    "yeast fitness": 0.501
  },
  {
    "residue-change": "A14U G39C C55G C62A",
    "value-comparator": "≤",
    "yeast fitness": 0.5
  },
  {
    "residue-change": "A14U C30A G38A C55A A65C",
    "value-comparator": "≤",
    "yeast fitness": 0.5
  },
  {
    "residue-change": "C31U C33U A42C",
    "value-comparator": "=",
    "yeast fitness": 0.562
  },
  {
    "residue-change": "A20U C27A",
    "value-comparator": "=",
    "yeast fitness": 0.717
  },
  {
    "residue-change": "A20G C66A",
    "value-comparator": "=",
    "yeast fitness": 0.635
  },
  {
    "residue-change": "U3A G12A A15G C24U A45U",
    "value-comparator": "≤",
    "yeast fitness": 0.5
  },
  {
    "residue-change": "C34A G50C G51A C61G",
    "value-comparator": "≤",
    "yeast fitness": 0.5
  },
  {
    "residue-change": "A42G U54A U59A",
    "value-comparator": "=",
    "yeast fitness": 0.541
  },
  {
    "residue-change": "A20G C33U",
    "value-comparator": "=",
    "yeast fitness": 0.798
  },
  {
    "residue-change": "A15U C66U",
    "value-comparator": "=",
    "yeast fitness": 0.738
  },
  {
    "residue-change": "A15U A43U A65C",
    "value-comparator": "=",
    "yeast fitness": 0.569
  },
  {
    "residue-change": "A14G G18C C30U C34U C61G",
    "value-comparator": "≤",
    "yeast fitness": 0.5
  },
  {
    "residue-change": "G6A C27G G38C",
    "value-comparator": "≤",
    "yeast fitness": 0.5
  },
  {
    "residue-change": "C30U G38C U64C A65G",
    "value-comparator": "≤",
    "yeast fitness": 0.5
  },
  {
    "residue-change": "U13C C31U U47G",
    "value-comparator": "=",
    "yeast fitness": 0.562
  },
  {
    "residue-change": "C11U U19G A65C",
    "value-comparator": "=",
    "yeast fitness": 0.696
  },
  {
    "residue-change": "C11G A43C",
    "value-comparator": "=",
    "yeast fitness": 0.63
  }
]
